FYI, the data here is from ChEMBL document CHEMBL1212839.

- experimental.target: Mu-type opioid receptor (Cavia porcellus) (UniProt P97266)
- Sequence (P97266 whole entry): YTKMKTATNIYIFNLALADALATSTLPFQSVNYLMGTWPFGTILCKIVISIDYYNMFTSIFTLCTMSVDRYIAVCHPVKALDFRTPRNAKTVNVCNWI
- test.settings: Ileum, 1 uM
inhibition reference
observable: inhibition (%)

compound.smiles: CCCC[C@@H]1NC(=O)[C@H](Cc2ccccc2)NC(=O)CNC(=O)[C@@H](NC(=O)[C@@H](N)Cc2ccc(O)cc2)C(C)(C)SSC(C)(C)[C@H](C(=O)N2CCC[C@H]2C(=O)N[C@@H](CC(C)C)C(=O)N[C@@H](Cc2c[nH]c3ccccc23)C(=O)NCc2cc(C(F)(F)F)cc(C(F)(F)F)c2)NC(=O)[C@@H]2CCCN2C1=O
observable: inhibition
readout.unit: %
test.result: 6
--
compound.smiles: CC(C)C[C@H](NC(=O)[C@@H]1CCCN1C(=O)[C@@H]1NC(=O)[C@H](Cc2ccccc2)NC(=O)CNC(=O)[C@@H](NC(=O)[C@@H](N)Cc2ccc(O)cc2)C(C)(C)SSC1(C)C)C(=O)N[C@@H](Cc1c[nH]c2ccccc12)C(=O)NCc1cc(C(F)(F)F)cc(C(F)(F)F)c1
observable: inhibition
readout.unit: %
test.result: 26
--
compound.smiles: CCCC[C@@H]1NC(=O)[C@H](Cc2ccccc2)NC(=O)CNC(=O)[C@@H](NC(=O)[C@@H](N)Cc2ccc(O)cc2)C(C)(C)SSC(C)(C)[C@@H](C(=O)N2CCC[C@H]2C(=O)N[C@@H](CC(C)C)C(=O)N[C@@H](Cc2c[nH]c3ccccc23)C(=O)NCc2cc(C(F)(F)F)cc(C(F)(F)F)c2)NC(=O)[C@@H]2CCCN2C1=O
observable: inhibition
readout.unit: %
test.result: 7
--
compound.smiles: CC(C)C[C@H](NC(=O)[C@@H]1CCCN1C(=O)[C@H]1NC(=O)[C@H](Cc2ccccc2)NC(=O)CNC(=O)[C@@H](NC(=O)[C@@H](N)Cc2ccc(O)cc2)C(C)(C)SSC1(C)C)C(=O)N[C@@H](Cc1c[nH]c2ccccc12)C(=O)NCc1cc(C(F)(F)F)cc(C(F)(F)F)c1
observable: inhibition
readout.unit: %
test.result: 0.6
